Where do these numbers come from? They come from patent US20240051946A1.

Target: catalytic domain of human PARP14 (residues 1611 to 1801) with NanoLuc tag (Homo sapiens)
Construct: expressed in transfected cells; host or cells: HEK-293T cells (ATCC), plasmid pRTX240 in pcDNA3.1(-)
Sequence (Q460N5 1611-1801): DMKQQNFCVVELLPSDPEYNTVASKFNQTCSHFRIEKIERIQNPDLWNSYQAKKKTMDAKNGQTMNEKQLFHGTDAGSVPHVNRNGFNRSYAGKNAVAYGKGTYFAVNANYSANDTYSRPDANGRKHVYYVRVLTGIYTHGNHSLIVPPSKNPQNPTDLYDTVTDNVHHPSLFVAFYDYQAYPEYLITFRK
Assay: NanoLuc assay for the degradation of PARP14
Type: cell-based
Conditions: Assay A; NanoLuc-PARP14 overexpressed in HEK-293T cells; 2 hours at 37 degrees; luminescence
Procedure: The catalytic domain of human PARP14 (residues 1611 to 1801, GenBank Accession No. NM_017554) was inserted into the pcDNA3.1(−) vector. The insert also contained a NanoLuc tag on the N terminus of the PARP14 protein. Degradation of PARP14 protein was assessed using measurement of the NanoLuc tag as proxy for the PARP14 protein. […] The average DMSO was calculated from 32 wells containing 0.1% DMSO only in columns 12 and 24 of the assay plate. The % of DMSO values were calculated as described below: […]
Readings of DC50 for the listed compounds

The reported value for O=C(CN1CCC(SCc2nc3cc(OCC4CCOCC4)cc(F)c3c(=O)[nH]2)CC1)NCCCCN1CCC(c2cccc(NC3CCC(=O)NC3=O)c2)CC1 (stereo not drawn) in terms of DC50 is < 0.1 µM

The reported value for O=C1CCN(c2ccc(C3CCN(CC4CCN(C(=O)CN5CCC(SCc6nc7cc(OCC8CCOCC8)cc(F)c7c(=O)[nH]6)CC5)CC4)CC3)cc2)C(=O)N1 in terms of DC50 is < 0.1 µM

The reported value for O=C1CCC(N2C(=O)c3cccc(N4CCN(CC5CCN(C(=O)CN6CCC(SCc7nc8cc(OCC9CCOCC9)cc(F)c8c(=O)[nH]7)CC6)CC5)CC4)c3C2=O)C(=O)N1 (stereo not drawn) in terms of DC50 is < 0.1 µM

The reported value for O=C(CN1CCC(SCc2nc3cc(OCC4CCOCC4)cc(F)c3c(=O)[nH]2)CC1)NCCCCCC(=O)N1CCC(c2cccc(NC3CCC(=O)NC3=O)c2)CC1 (stereo not drawn) in terms of DC50 is < 0.1 µM

The reported value for O=C(CN1CCC(SCc2nc3cc(OCC4CCOCC4)cc(F)c3c(=O)[nH]2)CC1)NCCCCCCN1CCC(c2cccc(NC3CCC(=O)NC3=O)c2)CC1 (stereo not drawn) in terms of DC50 is < 0.1 µM

Attention now shifts to the item below.
The reported value for O=C1CCC(Nc2ccc(C3CCN(CC4CCN(C(=O)CN5CCC(SCc6nc7cc(OCC8CCOCC8)cc(F)c7c(=O)[nH]6)CC5)CC4)CC3)cc2)C(=O)N1 (stereo not drawn) in terms of DC50 is < 0.1 µM

---

target: catalytic domain of human PARP14 (residues 1611 to 1801) with NanoLuc tag (Homo sapiens, UniProt Q460N5); construct: expressed in transfected cells; host or cells: HEK-293T cells (ATCC), plasmid pRTX240 in pcDNA3.1(-); test: NanoLuc assay for the degradation of PARP14; format: cell-based; details: Assay A; NanoLuc-PARP14 overexpressed in HEK-293T cells; 2 hours at 37 degrees; luminescence
Readings of DC50 for the listed compounds

Look over these answered cases.
The reported value for CC(=O)N1CCC(COc2cc(F)c3c(=O)[nH]c(CSC4CCN(CC#Cc5ccc6c(c5)n(C)c(=O)n6C5CCC(=O)NC5=O)CC4)nc3c2)CC1 (stereo not drawn) in terms of DC50 is < 100 nM

The reported value for CC(=O)N1CCC(COc2cc(F)c3c(=O)[nH]c(CSC4CCN(CC#Cc5ccc6c(c5)C(=O)N(C5CCC(=O)NC5=O)C6=O)CC4)nc3c2)CC1 (stereo not drawn) in terms of DC50 is < 100 nM

Continuing:
The reported value for O=C(CN1CCC(SCc2nc3cc(OCC4CCOCC4)cc(F)c3c(=O)[nH]2)CC1)NCCCCN1CCC(c2ccc(NC3CCC(=O)NC3=O)cc2)CC1 (stereo not drawn) in terms of DC50 is < 100 nM
